# Test system: Raji
# test.protocol: CCK-8 in vitro anti-tumor proliferation assay
# Type: cell-based
# assay.context: Homo sapiens, 72 h, read-out: IC50(uM) Raji
reported.metric: IC50 (µM)
Please give a number only; it is taken to be in µM.

Asked: Given Cc1ccccc1CN1C(=O)C2=C(CCN(Cc3ccccc3)C2)N2CCN=C12 [ONC201, reference compound] , state its recorded IC50.
Given back: 2.5

----------
# Tested on: A549
# test.protocol: CCK-8 in vitro anti-tumor proliferation assay
# Assay type: cell-based
# assay.context: Homo sapiens, A549; Table 3; 72 hours; read-out: IC50(uM) A549
reported.metric: IC50 (µM)

O=c1nc2n(c3c1CN(Cc1ccccc1)CC3)CCN2Cc1ccc(F)c(F)c1 [Compound 20]
0.5

[I] O=c1nc2n(c3c1CN(Cc1ccccc1)CC3)CCN2Cc1ccc(C(F)(F)F)cc1 [Compound 18]
[II] O=c1nc2n(c3c1CN(Cc1ccccc1)CC3)CCN2Cc1ccc(F)cc1F [Compound 19]
[III] Cc1ccccc1CN1CCn2c1nc(=O)c1c2CCN(Cc2ccccc2)C1 [Compound 1]
Asked: Provide the items ranked by increasing IC50. Write the labels, ordered according to the request.
Given back: I, II, III

----------
# target.desc: HsClpP (Homo sapiens, UniProt Q16740)
# Sequence (Q16740 57-277): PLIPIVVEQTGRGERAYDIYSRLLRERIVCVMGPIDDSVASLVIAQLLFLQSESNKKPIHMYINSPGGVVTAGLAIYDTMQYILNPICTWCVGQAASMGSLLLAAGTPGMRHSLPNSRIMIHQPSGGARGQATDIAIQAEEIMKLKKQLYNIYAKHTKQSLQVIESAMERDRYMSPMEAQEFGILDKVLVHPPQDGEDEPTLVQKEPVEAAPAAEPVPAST
# test.protocol: HsClpP enzyme hydrolysis of short peptide substrate AC-WLA-AMC
# assay.context: 1 μM; promoting hydrolysis of short peptide substrate by HsClpP, relative to blank control
reported.metric: Regulatory efficacy 1 μM

The examples below pair each entry with its known result.
CC(C)CCN1CCn2c1nc(=O)c1c2CCN(Cc2ccccc2)C1
+ +
O=c1nc2n(c3c1CN(Cc1ccccc1)CC3)CCN2Cc1ccccc1F
+ +
O=c1nc2n(c3c1CN(Cc1ccccc1)CC3(F)F)CCN2Cc1ccc(Cl)c(Cl)c1
+ +
COc1cccc(CN2CCn3c2nc(=O)c2c3CCN(Cc3ccccc3)C2)c1
+ +

Here is the next item to consider.
Asked: Given Cc1ccccc1CN1CCn2c1nc(=O)c1c2CCN(Cc2ccccc2)C1 , state its recorded Regulatory efficacy 1 μM.
Given back: + +

----------
# System: DLD1
# test.protocol: CCK-8 in vitro anti-tumor proliferation assay
# Type: cell-based
# assay.context: Homo sapiens, DLD-1; Table 3; 72 hours; read-out: IC50(uM) DLD1
reported.metric: IC50 (µM)

O=c1nc2n(c3c1CN(Cc1ccccc1)CC3)CCN2Cc1ccc(C(F)(F)F)cc1 [Compound 18]
0.15

[A] Cc1ccccc1CN1CCn2c1nc(=O)c1c2CCN(Cc2ccccc2)C1 [Compound 1]
[B] O=c1nc2n(c3c1CN(Cc1ccccc1)CC3)CCN2Cc1ccc(F)c(F)c1 [Compound 20]
Asked: Between A and B , whose measured IC50 reads higher? Answer by quoting the chosen item's label.
Given back: B

----------
# Test system: HT29
# test.protocol: CCK-8 in vitro anti-tumor proliferation assay
# Assay type: cell-based
# assay.context: Homo sapiens, HT-29; Table 4; 72 hours
reported.metric: IC50 (nM)

The examples below pair each entry with its known result.
O=c1nc2n(c3c1CN(Cc1ccccc1)CC3)CCN2Cc1ccc(F)cc1F [Compound 19]
80
O=c1nc2n(c3c1CN(Cc1ccccc1)CC3)CCN2Cc1ccc(F)c(F)c1 [Compound 20]
50

[A] O=c1nc2n(c3c1CN(Cc1ccccc1)CC3)CCN2Cc1ccc(Cl)cc1 [Compound 16]
[B] Cc1ccccc1CN1CCn2c1nc(=O)c1c2CCN(Cc2ccccc2)C1 [Compound 1]
[C] O=c1nc2n(c3c1CN(Cc1ccccc1)CC3)CCN2Cc1ccc(F)cc1 [Compound 15]
Asked: Kindly order the items shown according to IC50, from the highest value down. Write the labels, ordered according to the request.
Given back: B, C, A
(B: 5300 nM, C: 400 nM, A: 70 nM)
